Would you mind telling me the reported TGI of each entry?
# Tested on: OVCAR-3 ovarian
# TEST DETAILS: NCI tumour cell line growth inhibition, 48 h
Return type: number; implicit unit µM.

TGI reading for `Cc1nn(-c2ccc(Br)cc2)c(C)c1CC(=O)c1cc(O)ccc1O` : 38.8

Entry under test: `N=c1oc2c(Cl)cc(Cl)cc2cc1C(=O)Nc1ccccn1` . Its TGI was 57.5

Recorded TGI (compound `O=C(Nc1ccc(Br)cc1F)c1cc(Br)ccc1O` ): 8.62

Form field TGI, entry `Cc1cccc(NC(=S)N/N=C(/c2ccccc2)c2ccccn2)c1` : 11.9

Record `C/C(=N/N)c1ccc2[nH]c3c(C)cc([N+](=O)[O-])c(C)c3c2c1` . Reported TGI: 30.7

The value of TGI measured for the compound CCC(/C(=N\Nc1c(Cl)cc(Cl)cc1Cl)c1ccccc1)n1ccnc1C (stereo unspecified) turned out to be 18.8

// `CCN(CC)CCOc1ccc(C(=C2CCCCC2)c2ccc(OCCN(CC)CC)cc2)cc1` : TGI value = 3.62

Data point: N#CC(c1cc(Cl)ncn1)c1nc2ccccc2s1 (stereo unspecified) ; TGI = 22.8

Reported TGI ( `O=S(=O)(NCCCNc1cc(-c2cn(-c3ccccc3)nc2-c2cccc(O)c2)ccn1)c1ccc(Cl)cc1` ) = 3.7

Memo: `O=C1c2cccnc2C(=O)c2c1c(C(=O)OCCN1CCOCC1)c1ccccn21` , reported TGI: 1.11

# compound `Cn1c(=S)sc2nc3ccccc3n2c1=S` ; its TGI = 25.4

Form: compound = `C[n+]1ccc(-c2c3nc(c(-c4ccc5c(ccc[n+]5C)c4)c4ccc([nH]4)c(-c4cc[n+](C)cc4)c4nc(c(-c5ccc6c(ccc[n+]6C)c5)c5ccc2[nH]5)C=C4)C=C3)cc1` ; TGI = 40.5

So for Cc1ccc(NC(=O)c2nc(S(C)=O)oc2-c2ccc(F)cc2)cc1Nc1nccc(-c2cccnc2)n1 (stereo unspecified) , the logged TGI turned out to be 3.39

Consider `COc1cc2c3c(c4c5ccccc5[nH]c4c2c(OC)c1OC)C(=O)N(CCN1CCCCC1)C3=O` . Its measured TGI is 2.77

Lab note: CCCCCCCCCCCCP(=O)(O)OCC(N)C(=O)O (stereo unspecified) gave TGI of 36.5

So for `Cc1cc(NCCCCCCNc2cc(C)nc3ccc(Cl)cc23)c2cc(Cl)ccc2n1` , the logged TGI turned out to be 32

Query COc1cc2c(cc1O)C(C)Cc1cc3c(cc1N(C)CC2)OCO3 (stereo unspecified) yields TGI of 8.83

Data provenance is PubChem BioAssay (NCI).
